System: HEK-293T
Experiment: Multiplex assay against HEK293T
Type: toxicity, cell-based
Conditions: human, 48 h, 10 µM, compound concentration 10 uM, replicate 1
reportedEndpoint: Population Healthy Nuclei (%)

compound=CN(C)c1ccnc2sc3c(=O)n(N4CCCCCC4)cnc3c12 endpointresult=72
compound=CC(=O)NCCc1c(Cc2ccccc2)[nH]c2ccccc12 endpointresult=79
compound=CC(C)(C)c1ccc(S(=O)(=O)Nc2ccc(Cl)cc2C(=O)c2cc[n+]([O-])cc2)cc1 endpointresult=81
compound="COc1ccc2c(c1)C(C(=O)N(Cc1ccc(N(C)C)cc1)c1ccc(C(C)C)cc1)CCC2.Cl (stereo not given)" endpointresult=75
compound=CN1CCN(c2nc3cc(C(F)(F)F)ccc3n3cccc23)CC1.O=C(O)/C=C\C(=O)O.O=C(O)/C=C\C(=O)O endpointresult=75

----------
Tested on: Fibroblast
Test: Multiplex assay against human fibroblast
Assay type: toxicity, cell-based
Conditions: 48 h, 10 µM, compound concentration 10 uM, replicate 1
reportedEndpoint: Total Cell Count

compound=O=C(O)c1cc2ccccc2c(Cc2c(O)c(C(=O)O)cc3ccccc23)c1O reportedendpoint="Total Cell Count" endpointresult=136
compound=N#Cc1c(N)nc(SCc2csc(-c3ccc(Cl)cc3)n2)c(C#N)c1-c1ccc(OCCO)cc1 reportedendpoint="Total Cell Count" endpointresult=187
compound=CN(C)c1ccnc2sc3c(=O)n(N4CCCCCC4)cnc3c12 reportedendpoint="Total Cell Count" endpointresult=138
compound=CN1CCN(c2nc3cc(C(F)(F)F)ccc3n3cccc23)CC1.O=C(O)/C=C\C(=O)O.O=C(O)/C=C\C(=O)O reportedendpoint="Total Cell Count" endpointresult=211
compound=Cc1nc2ccc(Oc3ccc(F)cc3)cc2c(=O)n1C[C@H]1CCCN(C(C)C)C1.Cl reportedendpoint="Total Cell Count" endpointresult=290
compound=O=C(NCCO)c1cccc(-c2cc(Nc3ccc(OC(F)(F)F)cc3)ncn2)c1 reportedendpoint="Total Cell Count" endpointresult=170
compound="Cc1ccccc1C(=O)Nc1ccc(C(=O)N2CCCC(N(C)C)c3ccccc32)cc1.Cl (stereo unspecified)" reportedendpoint="Total Cell Count" endpointresult=88
compound=Cc1ccc(F)cc1C(=O)Nc1ccc(C(=O)N2Cc3cccn3Cc3ccccc32)c(Cl)c1 reportedendpoint="Total Cell Count" endpointresult=149
compound="COc1ccc2c(c1)C(C(=O)N(Cc1ccc(N(C)C)cc1)c1ccc(C(C)C)cc1)CCC2.Cl (stereo unspecified)" reportedendpoint="Total Cell Count" endpointresult=203
compound="CCCN1CCC[C@@H]2Cc3n[nH]cc3C[C@H]21.Cl [QUINPIROLE HYDROCHLORIDE]" reportedendpoint="Total Cell Count" endpointresult=119
compound=O=C1COc2nccc(-c3ccccc3F)c2CN1Cc1cc(C(F)(F)F)cc(C(F)(F)F)c1 reportedendpoint="Total Cell Count" endpointresult=172
compound=C[C@H](NC(=O)c1c(C(F)F)nn(C)c1Oc1cccc(C(F)(F)F)c1)c1ccc(C(=O)O)cc1 reportedendpoint="Total Cell Count" endpointresult=130
compound=C[C@H]1[C@H]2CC[C@H]3[C@@H]4CC=C5C[C@@H](N(C)C)CC[C@]5(C)[C@H]4CC[C@]23CN1C reportedendpoint="Total Cell Count" endpointresult=190
compound=CCNC1(C(N)=O)CCN(c2ncnc3c2nc(-c2ccccc2Cl)n3-c2ccc(Cl)cc2)CC1 reportedendpoint="Total Cell Count" endpointresult=187
compound=COc1cc(NC(=O)CCN2CCC(OC(=O)Nc3ccccc3-c3ccccc3)CC2)c(Cl)cc1CNC[C@H](O)c1ccc(O)c2[nH]c(=O)ccc12 reportedendpoint="Total Cell Count" endpointresult=213
compound=Oc1c(CN2CCN(c3ccccn3)CC2)cc(Cl)c2cccnc12 reportedendpoint="Total Cell Count" endpointresult=137
compound=CC(C)(C)c1ccc(S(=O)(=O)Nc2ccc(Cl)cc2C(=O)c2cc[n+]([O-])cc2)cc1 reportedendpoint="Total Cell Count" endpointresult=120
compound=CC(=O)NCCc1c(Cc2ccccc2)[nH]c2ccccc12 reportedendpoint="Total Cell Count" endpointresult=147
compound=N[C@@]1(C(=O)O)CO[C@H]2[C@H](C(=O)O)[C@H]21 reportedendpoint="Total Cell Count" endpointresult=179
compound=Cc1ccc(/C(=C\CN2CCCC2)c2ccccn2)cc1 reportedendpoint="Total Cell Count" endpointresult=142
compound="Cl.Clc1ccc2nsnc2c1NC1=NCCN1 [TIZANIDINE HYDROCHLORIDE]" reportedendpoint="Total Cell Count" endpointresult=133

----------
Tested on: HEK-293T
Experiment: Multiplex assay against HEK293T
Format: toxicity, cell-based
Conditions: human, 48 h, 1 µM, compound concentration 1 uM, replicate 1
reportedEndpoint: Population Apoptotic (%)

compound=CN(C)CCCc1cc(C(=O)Nc2ccc(-c3ccncc3)cc2)ccc1O.Cl.Cl reportedendpoint="Population Apoptotic (%)" endpointresult=23
compound=CN1CCN(c2nc3cc(C(F)(F)F)ccc3n3cccc23)CC1.O=C(O)/C=C\C(=O)O.O=C(O)/C=C\C(=O)O reportedendpoint="Population Apoptotic (%)" endpointresult=20
compound=CSCC[C@H](NC=O)C(=O)N[C@@H](CC(C)C)C(=O)N[C@@H](Cc1ccccc1)C(=O)O reportedendpoint="Population Apoptotic (%)" endpointresult=29
compound=CCCC(CCC)C(=O)O reportedendpoint="Population Apoptotic (%)" endpointresult=19
compound="Cl.Clc1ccc2nsnc2c1NC1=NCCN1 [TIZANIDINE HYDROCHLORIDE]" reportedendpoint="Population Apoptotic (%)" endpointresult=17
compound="Cc1ccc(C(C)(O)c2nc3ccccc3s2)c(C)c1 (centres undefined)" reportedendpoint="Population Apoptotic (%)" endpointresult=17
compound=N[C@@]1(C(=O)O)CO[C@H]2[C@H](C(=O)O)[C@H]21 reportedendpoint="Population Apoptotic (%)" endpointresult=26
compound="CNC[C@H](O)c1ccc(O)c(O)c1 [EPINEPHRINE]" reportedendpoint="Population Apoptotic (%)" endpointresult=16
compound=C[C@H](NC(=O)c1c(C(F)F)nn(C)c1Oc1cccc(C(F)(F)F)c1)c1ccc(C(=O)O)cc1 reportedendpoint="Population Apoptotic (%)" endpointresult=25

----------
Overview of reported Population Normal (%) across a group of compounds:
System: HEK-293T
Experiment: Multiplex assay against HEK293T
Format: toxicity, cell-based
Details: human, 48 h, 10 µM, compound concentration 10 uM, replicate 2
reportedEndpoint: Population Normal (%)

compound="Cl.Clc1ccc2nsnc2c1NC1=NCCN1 [TIZANIDINE HYDROCHLORIDE]" reportedendpoint="Population Normal (%)" valueunit=% endpointresult=94
compound=CCNC1(C(N)=O)CCN(c2ncnc3c2nc(-c2ccccc2Cl)n3-c2ccc(Cl)cc2)CC1 reportedendpoint="Population Normal (%)" valueunit=% endpointresult=85
compound=CCOc1c2c(c(OCC)c3ncccc13)CN(c1ccc(CS(=O)(=O)NC(=O)Cc3ccccc3OC)cc1C)C2=O reportedendpoint="Population Normal (%)" valueunit=% endpointresult=96
compound="CCCN1CCC[C@@H]2Cc3n[nH]cc3C[C@H]21.Cl [QUINPIROLE HYDROCHLORIDE]" reportedendpoint="Population Normal (%)" valueunit=% endpointresult=98
compound=O=C(NCCO)c1cccc(-c2cc(Nc3ccc(OC(F)(F)F)cc3)ncn2)c1 reportedendpoint="Population Normal (%)" valueunit=% endpointresult=82
compound=Cc1ccc(-c2ccc(F)cc2COc2ccc(CCC(=O)O)cc2)cc1 reportedendpoint="Population Normal (%)" valueunit=% endpointresult=95
compound=COc1c(C)cc(NC(=O)c2nn(Cc3ccc(F)cc3)c3c2CN(C(=O)c2ccc[nH]2)C[C@]3(C)C(N)=O)cc1C reportedendpoint="Population Normal (%)" valueunit=% endpointresult=89
compound=c1cc(OCCCN2CCCCC2)ccc1CN1CCCCC1 reportedendpoint="Population Normal (%)" valueunit=% endpointresult=90
compound=COc1ccccc1N1CCN(CCCCNC(=O)c2ccc3ccccc3c2)CC1.Cl reportedendpoint="Population Normal (%)" valueunit=% endpointresult=89

----------
Test system: Fibroblast
Assay: Multiplex assay against human fibroblast
Assay type: toxicity, cell-based
Conditions: 12 h, 10 µM, compound concentration 10 uM, replicate 1
Param threshold (60%) applies to Population Healthy Nuclei (%); output True when value >= threshold, False when value < threshold.

compound=CC(C)(C)c1ccc(S(=O)(=O)Nc2ccc(Cl)cc2C(=O)c2cc[n+]([O-])cc2)cc1 answerlabel=True
compound=Cc1ccc(/C(=C\CN2CCCC2)c2ccccn2)cc1 answerlabel=True
compound=N#Cc1c(N)nc(SCc2csc(-c3ccc(Cl)cc3)n2)c(C#N)c1-c1ccc(OCCO)cc1 answerlabel=False
compound=Oc1c(CN2CCN(c3ccccn3)CC2)cc(Cl)c2cccnc12 answerlabel=False
compound="O=S(=O)(c1ccccc1)c1cnc2c(N3CCNCC3)cccc2c1 [INTEPIRDINE]" answerlabel=True
compound="CN1CCN2c3ncccc3Cc3ccccc3C2C1 (stereo unspecified)" answerlabel=True
compound="Cc1ccc(C(C)(O)c2nc3ccccc3s2)c(C)c1 (stereo unspecified)" answerlabel=True
compound=C[C@H](NC(=O)c1c(C(F)F)nn(C)c1Oc1cccc(C(F)(F)F)c1)c1ccc(C(=O)O)cc1 answerlabel=True
compound=CC1(COc2ccc3c(c2)ncn3-c2ccc3cccc(N4CCC(N)CC4)c3n2)COC1 answerlabel=False
compound="CCCN1CCC[C@@H]2Cc3n[nH]cc3C[C@H]21.Cl [QUINPIROLE HYDROCHLORIDE]" answerlabel=True
compound=C[C@@H]1C[C@H]2[C@@H]3CCC4=CC(=O)C=C[C@]4(C)[C@@]3(F)[C@@H](O)C[C@]2(C)[C@@]1(O)C(=O)CO answerlabel=True
compound=CN(C)CCCc1cc(C(=O)Nc2ccc(-c3ccncc3)cc2)ccc1O.Cl.Cl answerlabel=False
compound=O=C(O)c1cc2ccccc2c(Cc2c(O)c(C(=O)O)cc3ccccc23)c1O answerlabel=True
compound=CC[C@H]1OC(=O)[C@H](C)[C@@H](O[C@H]2C[C@@](C)(OC)[C@@H](O)[C@H](C)O2)[C@H](C)[C@@H](O[C@@H]2O[C@H](C)C[C@H](N(C)C)[C@H]2O)[C@@]2(C)CC(C)=C(O2)[C@H](C)[C@@H](O)[C@]1(C)O answerlabel=True
